All values here come from paper PMC12064631.

Type: in vivo, human (Chinese patients with type 2 diabetes)
Setup Conditions: human, plasma, oral, 200 mg, AUCtau, single dose 200 mg; mean (SD)
Metric Name: AUC (ng·h/mL)

* CC(C)(CC(=O)N1CCCC1)NCC(=O)N1C[C@@H](F)C[C@H]1C#N | 3120

----------
Format: in vivo, human (Chinese patients with type 2 diabetes)
Setup Conditions: human, plasma, oral, 50 mg, Vz/F, single dose 50 mg; mean (SD)
Metric Name: Vd/F

* CC(C)(CC(=O)N1CCCC1)NCC(=O)N1C[C@@H](F)C[C@H]1C#N | 479 L

----------
Format: in vivo, human (Chinese patients with type 2 diabetes)
Setup Conditions: human, plasma, oral, 200 mg, AUCinf, single dose 200 mg; mean (SD)
Metric Name: AUC(0-inf)

* CC(C)(CC(=O)N1CCCC1)NCC(=O)N1C[C@@H](F)C[C@H]1C#N [DBPR108] | 3400 ng·h/mL

----------
Format: in vivo, human (Chinese patients with type 2 diabetes)
Setup Conditions: human, plasma, oral, 100 mg, λz, multiple doses 100 mg once daily; mean (SD)
Metric Name: k el (s⁻¹)

* CC(C)(CC(=O)N1CCCC1)NCC(=O)N1C[C@@H](F)C[C@H]1C#N | 4.03e-05

----------
Assay type: in vivo, human (Chinese patients with type 2 diabetes)
Setup Conditions: human, plasma, oral, 200 mg, Vz/F, multiple doses 200 mg once daily; mean (SD)
Metric Name: Vd/F (L)

• CC(C)(CC(=O)N1CCCC1)NCC(=O)N1C[C@@H](F)C[C@H]1C#N = 894

----------
Test System: UniProt:P27487
Sequence (P27487 39-766): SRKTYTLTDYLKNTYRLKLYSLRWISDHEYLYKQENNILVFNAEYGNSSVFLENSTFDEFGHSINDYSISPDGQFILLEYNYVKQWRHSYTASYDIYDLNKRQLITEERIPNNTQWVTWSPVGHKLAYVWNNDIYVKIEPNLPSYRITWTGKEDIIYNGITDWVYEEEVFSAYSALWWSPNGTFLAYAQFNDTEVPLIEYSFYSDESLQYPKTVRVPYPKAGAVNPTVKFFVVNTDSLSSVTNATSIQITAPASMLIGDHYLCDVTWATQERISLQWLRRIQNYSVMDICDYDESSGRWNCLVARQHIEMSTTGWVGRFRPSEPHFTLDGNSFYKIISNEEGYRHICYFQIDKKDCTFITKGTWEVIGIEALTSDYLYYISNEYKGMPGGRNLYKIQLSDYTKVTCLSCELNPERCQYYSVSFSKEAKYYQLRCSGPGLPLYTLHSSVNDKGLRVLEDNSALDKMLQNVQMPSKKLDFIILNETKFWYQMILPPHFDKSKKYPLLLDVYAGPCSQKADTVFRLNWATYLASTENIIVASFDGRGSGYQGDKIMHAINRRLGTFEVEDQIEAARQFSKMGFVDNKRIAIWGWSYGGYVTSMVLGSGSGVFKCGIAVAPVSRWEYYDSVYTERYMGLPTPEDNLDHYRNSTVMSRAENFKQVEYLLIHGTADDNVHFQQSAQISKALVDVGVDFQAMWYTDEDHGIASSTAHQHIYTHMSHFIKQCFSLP
Method Summary: PK-PD relationship between DPP-4 inhibition and DBPR108 exposure
Setup Conditions: EC50 (Emax model), after a single administration; DPP-4 inhibition versus plasma concentration
pEC50: −log10 of the molar value.
Metric Name: pEC50

* CC(C)(CC(=O)N1CCCC1)NCC(=O)N1C[C@@H](F)C[C@H]1C#N | 6.49

----------
Assay type: in vivo, human (Chinese patients with type 2 diabetes)
Setup Conditions: human, plasma, oral, 50 mg, λz, multiple doses 50 mg once daily; mean (SD)
Metric Name: k el (s⁻¹)

* CC(C)(CC(=O)N1CCCC1)NCC(=O)N1C[C@@H](F)C[C@H]1C#N | 3.56e-05

----------
Format: in vivo, human (Chinese patients with type 2 diabetes)
Setup Conditions: human, plasma, oral, 100 mg, Vz/F, multiple doses 100 mg once daily; mean (SD)
Metric Name: Vd/F

• CC(C)(CC(=O)N1CCCC1)NCC(=O)N1C[C@@H](F)C[C@H]1C#N = 896 L

----------
Format: in vivo, human (Chinese patients with type 2 diabetes)
Setup Conditions: human, plasma, oral, 50 mg, t½,ss, multiple doses 50 mg once daily; mean (SD)
Metric Name: half-life (min)

• CC(C)(CC(=O)N1CCCC1)NCC(=O)N1C[C@@H](F)C[C@H]1C#N = 480

----------
Type: in vivo, human (Chinese patients with type 2 diabetes)
Setup Conditions: human, plasma, po, 50 mg
Metric Name: Cmax (ng/mL)

* CC(C)(CC(=O)N1CCCC1)NCC(=O)N1C[C@@H](F)C[C@H]1C#N [DBPR108] | 151

----------
Format: in vivo, human (Chinese patients with type 2 diabetes)
Setup Conditions: human, plasma, oral, 100 mg, Tmax, single dose 100 mg; median (range)
Metric Name: Tmax (h)

- CC(C)(CC(=O)N1CCCC1)NCC(=O)N1C[C@@H](F)C[C@H]1C#N: 4.5
